Target: HGF (hepatocyte growth factor/scatter factor) (UniProt P14210;P14210 P14210:32-494,P14210:495-728)
Sequence (P14210 32-494, chain 1 of 2): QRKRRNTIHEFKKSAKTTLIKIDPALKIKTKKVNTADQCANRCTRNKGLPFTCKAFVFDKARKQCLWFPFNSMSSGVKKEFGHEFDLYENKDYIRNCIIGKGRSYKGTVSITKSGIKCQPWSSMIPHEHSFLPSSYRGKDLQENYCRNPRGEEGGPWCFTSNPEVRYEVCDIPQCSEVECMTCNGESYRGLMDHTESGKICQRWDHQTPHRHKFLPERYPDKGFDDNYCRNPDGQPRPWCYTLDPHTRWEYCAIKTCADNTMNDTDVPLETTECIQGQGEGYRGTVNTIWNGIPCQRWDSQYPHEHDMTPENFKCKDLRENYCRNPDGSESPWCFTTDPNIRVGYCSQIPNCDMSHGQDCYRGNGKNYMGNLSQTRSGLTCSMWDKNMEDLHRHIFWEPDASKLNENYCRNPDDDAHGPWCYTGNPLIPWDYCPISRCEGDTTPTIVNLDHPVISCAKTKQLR
Sequence (P14210 495-728, chain 2 of 2): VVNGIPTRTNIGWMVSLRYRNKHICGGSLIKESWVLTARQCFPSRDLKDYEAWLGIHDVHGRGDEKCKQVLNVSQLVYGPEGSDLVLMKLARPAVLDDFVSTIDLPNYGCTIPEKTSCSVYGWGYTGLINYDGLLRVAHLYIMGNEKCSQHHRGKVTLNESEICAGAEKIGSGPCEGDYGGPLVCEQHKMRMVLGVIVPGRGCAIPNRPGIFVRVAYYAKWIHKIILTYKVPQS
Test: filter; HBSMC, 37C; SEQ 108 in listing duplicates SEQ 107, table sequence used
Settings: tags: R&D Systems
assay_readout: Kd (nM)
The response must be a number in nM with no trailing unit.

Return reported Kd; argument: 10-17 (ssRNA, 2'-F pyrimidines) RNA: GGGAGAUAAGAAUAAACGCUCAAAACCCUGUUGGCGUGACGUCCCGACCCUCCUUCGACAGGAGGCUCACAACAGGC
0.56
